# System: HCC-2998 colon
# ASSAY REMARKS: NCI tumour cell line growth inhibition, 48 h
TGI values, listed per item
METRIC NAME: TGI

[[record]]
chem_smiles = "CC(=O)O[C@H]1CC[C@@]2(C)C(=CC[C@@H]3[C@@H]2CC[C@]2(C)c4nc(N)c(C#N)cc4C[C@@H]32)C1"
reported = "> 100 µM"

[[record]]
chem_smiles = "Cc1cc(NC2=NCCO2)c2c(c1C)CCCC2"
reported = "29 µM"

[[record]]
chem_smiles = "COC(=O)Nc1nc2c(OC)c(OC)c(OC)cc2[nH]1"
reported = "> 100 µM"

[[record]]
chem_smiles = "O=C1C[C@@H](c2ccccc2)NCCCCN(O)CCCN1"
reported = "> 100 µM"

[[record]]
chem_smiles = "CCOC(=O)N(CC)c1c(C(F)(F)F)cc(-c2ccccc2)[nH]c1=O"
reported = "> 100 µM"

[[record]]
chem_smiles = "Cc1cc(-c2ccccc2)c(C)n1Cc1ccc(Cl)cc1"
reported = "93.7 µM"


###

Listed compounds paired with reported TGI
# System: HCT-116 colon
# ASSAY REMARKS: NCI tumour cell line growth inhibition, 48 h
METRIC NAME: TGI

[[record]]
compound = "CC(C)[C@@H](C(=O)O[C@@H]1/C=C/C(=O)O[C@@H](C)CCC/C=C/[C@@H]2C[C@H](O)C[C@H]21)[N+](C)(C)C"
reported = "> 100 µM"

[[record]]
compound = "CC1(C)Oc2ccc(Cl)cc2C12CC2"
reported = "29 µM"

[[record]]
compound = "O=C(NN=C1CCCCC1)Nc1ccccc1Cl"
reported = "> 100 µM"

[[record]]
compound = "O=C(NCCO)c1c(O)c2ccccc2[nH]c1=O"
reported = "> 100 µM"

[[record]]
compound = "Cc1ccc(S(=O)(=Nc2ccccc2)C(C(C)C)C(C)(C)Cl)cc1 (stereo unspecified)"
reported = "> 50 µM"

[[record]]
compound = "Cc1ccccc1NC(=S)N/N=C(/c1ccccc1)c1ccccn1"
reported = "17.2 µM"

[[record]]
compound = "O=C(Cc1ccccc1)Nc1nnc(CCSCCc2nnc(NC(=O)Cc3ccccc3)s2)s1"
reported = "> 100 µM"

[[record]]
compound = "CCOC(=O)Nc1nc2c(F)c(F)c(F)cc2s1"
reported = "> 100 µM"

[[record]]
compound = "BrP(NC1CCCCCC1)(c1ccccc1)(c1ccccc1)c1ccccc1"
reported = "> 100 µM"

[[record]]
compound = "O=c1[nH]c(=O)n(C2CC(O)C(CO)O2)cc1NN=NCc1ccccc1 (stereo unspecified)"
reported = "> 100 µM"

[[record]]
compound = "COc1cc(C(=O)/C=C/c2c(-c3ccc(F)cc3)nc3sccn23)cc(OC)c1OC"
reported = "8.75 µM"

[[record]]
compound = "CCOC(=O)c1c(-c2[nH]c(C(=O)OCc3ccccc3)c(C)c2C(=O)OCC)[nH]c(C(=O)OCc2ccccc2)c1C"
reported = "> 100 µM"

[[record]]
compound = "CCCCCC(/C=C/[C@@H]1CC(=O)C[C@H]1O[Si](C)(C)C(C)(C)C)OCOCCOC (stereo partly specified)"
reported = "13.5 µM"

[[record]]
compound = "Cc1cc(NC2=NCCO2)c2c(c1C)CCCC2"
reported = "> 100 µM"

[[record]]
compound = "Cc1cc(C)cc(Nc2nccc(-c3c(-c4ccc(F)cc4)ncn3C3CCNCC3)n2)c1"
reported = "2.36 µM"

[[record]]
compound = "CCCCCCC(CCl)c1sc(-c2csc(CCNC(=O)OC(C)(C)C)n2)nc1C(=O)OC (stereo unspecified)"
reported = "31.6 µM"

[[record]]
compound = "CC(O)(c1ccccc1)c1nccc2ccccc12 (stereo unspecified)"
reported = "> 100 µM"

[[record]]
compound = "O=C1c2ccccc2C(=O)N1C(=S)c1ccccc1"
reported = "> 100 µM"

[[record]]
compound = "COc1ccc2[nH]c(C(=O)N3CC(CCl)c4ccc([N+](=O)[O-])cc43)cc2c1 (stereo unspecified)"
reported = "> 100 µM"

[[record]]
compound = "O=C(c1ccc(Cl)cc1)N(C(=S)N1CCN(c2ccccn2)CC1)c1ccccc1"
reported = "> 100 µM"

[[record]]
compound = "Cn1cc2ccccc2c1-c1nc(F)nc(Oc2ccc3c(c2)CC[C@@H]2C3CC[C@]3(C)C(O)CCC23)n1 (stereo partly specified)"
reported = "35.8 µM"

